Below, each of the molecules is paired with its reported IC50 value.
- test-system: human dopamine D3 receptor (Homo sapiens)
- Construct: host or cells: CHO-K1 (membranes)
- Sequence (P35462 whole entry): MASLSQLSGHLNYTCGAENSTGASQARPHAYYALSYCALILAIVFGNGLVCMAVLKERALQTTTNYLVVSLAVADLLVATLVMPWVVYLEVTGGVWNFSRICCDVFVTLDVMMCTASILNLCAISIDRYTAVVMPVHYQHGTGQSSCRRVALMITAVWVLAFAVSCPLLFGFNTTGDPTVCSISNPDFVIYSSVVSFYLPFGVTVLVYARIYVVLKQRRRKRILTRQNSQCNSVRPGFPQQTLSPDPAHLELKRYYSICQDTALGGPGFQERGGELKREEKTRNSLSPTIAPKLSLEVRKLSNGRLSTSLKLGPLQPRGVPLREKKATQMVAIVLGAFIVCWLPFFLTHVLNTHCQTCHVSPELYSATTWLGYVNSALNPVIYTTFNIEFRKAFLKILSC
- test: Antagonistic activity against dopamine D3 receptor, [35S]GTPγS binding, CHO-K1 membranes
- Type: biochemical
- stated-conditions: inhibition of dopamine-induced [35S]GTPγS binding; read-out: IC50 value D3
- Description: Assays were performed at Eurofins Discovery (MO, USA). […] After 20 minute incubation with 0.7 mM acetylthiocholine iodide and 0.5 mM 5,5-dithiobis-2-nitrobenzoic acid, the spectrophotometric absorbance was read at 405 nm (Catalog No. 104010). […] Inhibition on increase of [^35S]GTPS binding response induced by dopamine (10, 0.03 mM) or 3 nM human NPY was assessed as receptor antagonist activities of test compounds (Catalog No. 310200, 310400, 332520). […]
Numbers only; they are read as µM.

Here is how some molecules turned out for IC50.
>  <smiles-notation>
O=C(/C=C/c1ccc(O)c(O)c1)O[C@H](Cc1ccc(O)c(O)c1)C(=O)O

>  <units-symbol>
µM

>  <IC50>
0.54

$$$$
>  <smiles-notation>
CCCCCCC/C=C/C(=O)CCc1ccc(O)c(OC)c1

>  <units-symbol>
µM

>  <IC50>
11.2

$$$$
>  <smiles-notation>
CCCCC/C=C/C(=O)CCc1ccc(O)c(OC)c1

>  <units-symbol>
µM

>  <IC50>
11.3

$$$$

Then there is this molecule:
**Q:** Query: IC50; subject: C=CCc1ccc(O)c(-c2ccc(O)c(CC=C)c2)c1
**A:** 52.7

* * *

- test-system: human recombinant acetylcholinesterase (AChE) (Homo sapiens, UniProt P22303)
- Sequence (P22303 32-614): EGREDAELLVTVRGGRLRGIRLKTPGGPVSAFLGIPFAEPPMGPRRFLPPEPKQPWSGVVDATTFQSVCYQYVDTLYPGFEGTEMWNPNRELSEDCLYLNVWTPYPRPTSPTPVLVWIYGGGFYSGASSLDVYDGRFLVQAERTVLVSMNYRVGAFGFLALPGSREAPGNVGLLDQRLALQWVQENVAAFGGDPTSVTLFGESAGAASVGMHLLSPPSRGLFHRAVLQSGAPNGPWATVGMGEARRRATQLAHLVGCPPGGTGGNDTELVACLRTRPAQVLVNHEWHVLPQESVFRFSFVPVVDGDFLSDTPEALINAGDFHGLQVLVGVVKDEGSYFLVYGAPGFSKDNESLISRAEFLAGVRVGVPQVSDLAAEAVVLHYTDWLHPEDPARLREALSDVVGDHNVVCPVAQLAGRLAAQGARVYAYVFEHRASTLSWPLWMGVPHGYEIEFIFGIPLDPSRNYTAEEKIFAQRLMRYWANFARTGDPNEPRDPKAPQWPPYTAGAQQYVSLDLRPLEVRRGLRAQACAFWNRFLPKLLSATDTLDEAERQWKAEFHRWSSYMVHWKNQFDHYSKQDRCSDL
- test: Inhibition of recombinant acetylcholinesterase, spectrophotometric (acetylthiocholine/DTNB)
- stated-conditions: pH 7.4, 25°C
experimental-readout: IC50 (µM)
Enter your answer as a number in µM; do not include the unit.

**Q:** # query: IC50 | item CCCCCCC/C=C/C(=O)CCc1ccc(O)c(OC)c1 | system: human recombinant acetylcholinesterase (AChE) (Homo sapiens, UniProt P22303)
**A:** 18.9

**Q:** // fetch human recombinant acetylcholinesterase (AChE) (Homo sapiens, UniProt P22303) IC50 for CCCCCCCCC[C@H](O)CC(=O)CCc1ccc(O)c(OC)c1
**A:** 25.9

* * *

Here the recorded pIC50 is given for each entry.
- test-system: human dopamine D2 receptor (Homo sapiens)
- Construct: host or cells: CHO-K1 (membranes)
- Sequence (P14416 whole entry): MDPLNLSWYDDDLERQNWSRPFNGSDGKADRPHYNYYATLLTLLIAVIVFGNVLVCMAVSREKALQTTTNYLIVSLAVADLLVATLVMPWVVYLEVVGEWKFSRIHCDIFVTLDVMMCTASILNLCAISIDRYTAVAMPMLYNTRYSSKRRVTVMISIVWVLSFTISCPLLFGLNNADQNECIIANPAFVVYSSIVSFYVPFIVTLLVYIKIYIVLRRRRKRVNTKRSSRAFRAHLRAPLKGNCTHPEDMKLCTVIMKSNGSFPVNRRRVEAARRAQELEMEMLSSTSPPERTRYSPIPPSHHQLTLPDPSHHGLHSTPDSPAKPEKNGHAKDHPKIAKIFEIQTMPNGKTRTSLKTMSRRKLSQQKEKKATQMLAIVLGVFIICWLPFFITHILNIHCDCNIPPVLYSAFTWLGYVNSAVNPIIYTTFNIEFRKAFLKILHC
- test: Antagonistic activity against dopamine D2 receptor, [35S]GTPγS binding, CHO-K1 membranes
- Type: biochemical
Value format note: pIC50 is -log10 of concentration (mol/L); just state the number.

>  <smiles-notation>
C=CCc1ccc(O)c(-c2cc(CC=C)ccc2O)c1

>  <test-value>
4.37

$$$$

Let us move to another entry and its pIC50.
**Q:** # lookup: pIC50 of O=c1cc(-c2ccc(O)c(O)c2)oc2cc(O)cc(O)c12
**A:** 4.31

* * *

- test-system: human neuropeptide Y (NPY) Y2 receptor (Homo sapiens)
- Construct: host or cells: KAN-TS (membranes)
- Sequence (P49146 whole entry): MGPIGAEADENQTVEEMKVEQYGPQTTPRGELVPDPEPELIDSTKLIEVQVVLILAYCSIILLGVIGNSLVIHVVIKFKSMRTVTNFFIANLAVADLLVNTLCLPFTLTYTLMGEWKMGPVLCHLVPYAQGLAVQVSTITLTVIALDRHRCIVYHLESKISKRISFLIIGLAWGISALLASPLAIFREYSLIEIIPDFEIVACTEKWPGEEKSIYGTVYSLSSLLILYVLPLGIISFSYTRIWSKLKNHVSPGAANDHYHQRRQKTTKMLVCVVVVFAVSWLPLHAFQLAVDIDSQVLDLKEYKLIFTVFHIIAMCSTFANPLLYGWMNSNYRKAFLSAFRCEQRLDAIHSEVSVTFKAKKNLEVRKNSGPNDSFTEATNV
- test: Antagonistic activity against NPY Y2 receptor, [35S]GTPγS binding, KAN-TS membranes
- Assay type: biochemical
- stated-conditions: inhibition of [35S]GTPγS binding induced by 3 nM human NPY, KAN-TS cells; read-out: IC50 value NPY Y2
- Method: Assays were performed at Eurofins Discovery (MO, USA). […] After 20 minute incubation with 0.7 mM acetylthiocholine iodide and 0.5 mM 5,5-dithiobis-2-nitrobenzoic acid, the spectrophotometric absorbance was read at 405 nm (Catalog No. 104010). […] Inhibition on increase of [^35S]GTPS binding response induced by dopamine (10, 0.03 mM) or 3 nM human NPY was assessed as receptor antagonist activities of test compounds (Catalog No. 310200, 310400, 332520). […]
experimental-readout: pIC50
Here pIC50 is given on a logarithmic scale as minus log10 of the concentration in mol/L.

**Q:** State the recorded pIC50 for this entry: O=c1cc(-c2ccc(O)c(O)c2)oc2cc(O)cc(O)c12
**A:** 5.08
